pIC50: −log10 of the molar value.
Assembled from different publications: pIC50 for Aurora kinase A (Homo sapiens).
Decision: pIC50 >= 8 yields Yes, all other cases yield No.

Reference set (5 entries):
>>> categorylabel("CC1(C)CN(c2ccc(-c3oc(-c4cccc5[nH]ccc45)nc3C(N)=O)cc2)CCN1")
"No"
>>> categorylabel("Cn1cc(Nc2ncc(Cl)c(N[C@@H]3COC4C3OC[C@@H]4NS(=O)(=O)CC(F)F)n2)cn1 (some centres unmarked)")
"No"
>>> categorylabel("Cc1cc(Nc2cccc(CN3CCN(C(=O)c4cccc(Cl)c4F)CC3)n2)n[nH]1")
"Yes"
>>> categorylabel("Cc1cn(C)c(C)c1-c1ccnc(Nc2ccc(N3CCOCC3)cc2)n1")
"No"
>>> categorylabel("c1ccc(COc2ccc(Nc3nccc(-c4nccs4)n3)cc2)cc1")
"No"

Lookup: Has Cn1nnc2cc(Nc3ncc(Cl)c(NC4CCN(c5ccc(C#N)nn5)CC4)n3)ccc21 a recorded pIC50 greater than or equal to 8?
Found: No

====

Collected set of pIC50 measured with Aurora kinase A (Homo sapiens, UniProt O14965) across studies.
pIC50: −log10 of the molar value.

Answered cases to consult:
>>> measvalue("Cc1c(-c2ccnc(Nc3ccc4c(c3)CS(=O)(=O)C4)n2)c(C)n2c1C(=O)NCC2")
"> 7.00"
>>> measvalue("O=C1Nc2c(Cl)cccc2/C1=C\\c1ccc2cn[nH]c2c1")
"4.30 to 5.30"
>>> measvalue("CCN(CC)CCCNS(=O)(=O)c1ccc(Nc2nccc(-c3c(C)c4n(c3C)CCNC4=O)n2)cc1C")
"> 5.00"
>>> measvalue("NC(=O)[C@]1(Cc2cncc(Nc3cc[nH]n3)n2)CC[C@@H](Oc2cccc(Cl)c2F)CC1")
8.70
>>> measvalue("Cc1cc(Nc2nn(C(C)C)c(=O)c3cc(C(=O)O)ccc23)n[nH]1")
"7.00 to 9.00"

# lookup: O=C(NCC1CCCO1)c1cc(-c2[nH]ncc2-c2cc(F)ccc2F)c[nH]1 (centres unmarked) on Aurora kinase A (Homo sapiens, UniProt O14965), pIC50 = < 5.00

Summary line: COc1cc2c(Sc3ccc(NC(=O)Nc4ccc(C(F)(F)F)cc4)cc3)ccnc2cc1OCCC[C@@H](N)C(=O)O , Aurora kinase A (Homo sapiens, UniProt O14965), reported pIC50 = > 5.70

Response field pIC50 (Aurora kinase A (Homo sapiens, UniProt O14965)) for item CS(=O)(=O)c1ccc(-c2cnc3[nH]cc(C4CC4)c3c2Cl)cc1N1CCCNC1=O : 8.15

====

pIC50 values for Aurora kinase A (Homo sapiens, UniProt O14965), compiled from several publications.
pIC50: −log10 of the molar value.

Example entries and their recorded answers appear below.
>>> measvalue("COc1ccc(-c2cnc3[nH]c(=O)n(Cc4ccccc4)c3n2)cc1C(=O)O")
"> 6.30"
>>> measvalue("Cc1cc(Nc2nn(C(C)C)c(=O)c3cc(CN4CCN(C)CC4)ccc23)n[nH]1")
"7.00 to 9.00"
>>> measvalue("CCCc1cc(-c2nc3cc4c(cc3[nH]2)C(C)(C)CC(=O)N4)[nH]n1")
"6.30 to 8.00"
>>> measvalue("COc1nc(N2CCN(C)CC2)ccc1Nc1ncc(Cl)c(Nc2cccc3c2C(=O)NC3)n1")
"7.00 to 7.96"
>>> measvalue("O=C(c1cccc(Cl)c1F)N1CCN(Cc2cccc(Nc3cc[nH]n3)n2)CC1")
8.74

Notebook: COc1cc(-c2cnc3[nH]c(=O)n(Cc4cccc([N+](=O)[O-])c4)c3n2)cc(OC)c1OC , pIC50 read as < 6.00

The reported value for O=C(c1cccnc1F)N1CCN(Cc2cccc(Nc3ncc(Br)s3)n2)CC1 in terms of pIC50 is 8.70

Recorded pIC50 (molecule Cc1c(-c2ccnc(Nc3ccc4c(c3)OCC(=O)N4)n2)c(C)n2c1C(=O)NCC2 ): > 6.00

Entry Cc1noc(C)c1-c1cnc2[nH]c(=O)n([C@@H](C)c3ccccc3)c2n1 , pIC50 reported as < 6.00

The recorded pIC50 for entry COc1cc2c(Nc3ccc(NC(=O)c4ccccc4)cc3)ccnc2cc1OCC[C@H](N)C(=O)OC1CCCC1 equals 5.30 to 5.70

// recorded pIC50 for CN1CCN(c2ccc(Nc3ncc(Cl)c(Nc4cccc5c4C(=O)NC5)n3)c(C(F)(F)F)c2)CC1 : 6.00 to 7.00

molecule CN1CCN(C(=O)CCc2c(/C=C3\C(=O)Nc4ccc(NS(=O)(=O)c5ccccc5)cc43)[nH]c3c2C(=O)CCC3)CC1 , pIC50 observed: 6.08

So, O=C(NCc1cccnc1)c1cc(-c2[nH]ncc2-c2ccc(Cl)cc2)c[nH]1 ? Its pIC50 was 5.00 to 5.30

The reported value for Cn1cc(Nc2ncc(Cl)c(N[C@@H]3COC4C3OC[C@@H]4NS(=O)(=O)CC(C)(C)C)n2)cn1 (some centres unmarked) in terms of pIC50 is 7.77

Memo: Cc1cc(Nc2nn(C(C)C)c(=O)c3cc(OCc4ccncc4)ccc23)n[nH]1 , reported pIC50: 7.00 to 9.00

# molecule Cc1c(-c2ccnc(Nc3ccc(C(C)C(=O)O)cc3)n2)c(C)n2c1C(=O)NCC2 (centres unmarked) ; its pIC50 = > 6.00

Entry under test: COc1cc2c(Sc3ccc(NC(=O)c4ccccc4)cc3)ccnc2cc1OCC[C@H](N)C(=O)O . Its pIC50 was > 5.70
